# TEST_PROTOCOL: Extrapolated human dosimetry (OLINDA/EXM, ICRP-89 phantoms)
# PROTOCOL_CONDITIONS: ICRP 89 Adult Male, extrapolated
# Experimental: To address inter-animal variability, the TIACs for each source organ were calculated from both the mean nTACs and the nTACs obtainend from fitting the mean ± 1 standard deviation (SD) of the normalized time-activity data, providing upper and lower bounds. […] The TIACs, for [177Lu]Lu-DOTAGA.Glu.(FAPI)2 and [177Lu]Lu-DO3A.Glu.(FAPI)2, were determined by time integration of the nTACs. […]
EXPERIMENTAL_ENDPOINT: Absorbed dose (AD average) Adrenals (mGy/Mbq)
Write the value in mGy/Mbq as a bare number.

Consider the reported Absorbed dose (AD average) Adrenals for these molecules:
MOLECULE	EXPERIMENTAL_ENDPOINT	DISPLAY_UNIT	VALUE_REPORTED
N#C[C@@H]1CC(F)(F)CN1C(=O)CNC(=O)c1ccnc2ccc(OCCCCNC(=O)CC[C@H](NC(=O)CN3CCN(CC(=O)[O-])CCN(CC(=O)[O-])CCN(CC(=O)[O-])CC3)C(=O)NCCCCOc3ccc4nccc(C(=O)NCC(=O)N5CC(F)(F)C[C@H]5C#N)c4c3)cc12.[177Lu+3] [[^177Lu]Lu-DO3A.Glu.(FAPI)2]	Absorbed dose (AD average) Adrenals	mGy/Mbq	7.77E-03
N#C[C@@H]1CC(F)(F)CN1C(=O)CNC(=O)c1ccnc2ccc(OCCCCNC(=O)CC[C@H](NC(=O)CCC(C(=O)O)N3CCN(CC(=O)[O-])CCN(CC(=O)[O-])CCN(CC(=O)[O-])CC3)C(=O)NCCCCOc3ccc4nccc(C(=O)NCC(=O)N5CC(F)(F)C[C@H]5C#N)c4c3)cc12.[177Lu+3] (stereo partly shown) [[^177Lu]Lu-DOTAGA.Glu.(FAPI)2]	Absorbed dose (AD average) Adrenals	mGy/Mbq	1.17E-02
N#C[C@@H]1CC(F)(F)CN1C(=O)CNC(=O)c1ccnc2ccc(OCCCCNC(=O)CC[C@H](NC(=O)CCC(C(=O)O)N3CCN(CC(=O)[O-])CCN(CC(=O)[O-])CCN(CC(=O)[O-])CC3)C(=O)NCCCCOc3ccc4nccc(C(=O)NCC(=O)N5CC(F)(F)C[C@H]5C#N)c4c3)cc12.[161Tb+3] (stereo partly shown) [[^161Tb]Tb-DOTAGA.Glu.(FAPI)2]	Absorbed dose (AD average) Adrenals	mGy/Mbq	1.63E-02

Let us examine a further case.
Task item: Would you kindly share the measured Absorbed dose (AD average) Adrenals for N#C[C@@H]1CC(F)(F)CN1C(=O)CNC(=O)c1ccnc2ccc(OCCCCNC(=O)CC[C@H](NC(=O)CN3CCN(CC(=O)[O-])CCN(CC(=O)[O-])CCN(CC(=O)[O-])CC3)C(=O)NCCCCOc3ccc4nccc(C(=O)NCC(=O)N5CC(F)(F)C[C@H]5C#N)c4c3)cc12.[161Tb+3] [[^161Tb]Tb-DO3A.Glu.(FAPI)2] ?
Reply: 1.05E-02

----------
# TEST_PROTOCOL: Extrapolated human dosimetry (OLINDA/EXM, ICRP-89 phantoms)
# PROTOCOL_CONDITIONS: ICRP 89 Adult Male, extrapolated
EXPERIMENTAL_ENDPOINT: Absorbed dose (AD average) Rectum (mGy/Mbq)
Write the value in mGy/Mbq as a bare number.

Consider the reported Absorbed dose (AD average) Rectum for these compounds:
COMPOUND	EXPERIMENTAL_ENDPOINT	VALUE_REPORTED
N#C[C@@H]1CC(F)(F)CN1C(=O)CNC(=O)c1ccnc2ccc(OCCCCNC(=O)CC[C@H](NC(=O)CN3CCN(CC(=O)[O-])CCN(CC(=O)[O-])CCN(CC(=O)[O-])CC3)C(=O)NCCCCOc3ccc4nccc(C(=O)NCC(=O)N5CC(F)(F)C[C@H]5C#N)c4c3)cc12.[177Lu+3] [[^177Lu]Lu-DO3A.Glu.(FAPI)2]	Absorbed dose (AD average) Rectum	5.76E-02
N#C[C@@H]1CC(F)(F)CN1C(=O)CNC(=O)c1ccnc2ccc(OCCCCNC(=O)CC[C@H](NC(=O)CCC(C(=O)O)N3CCN(CC(=O)[O-])CCN(CC(=O)[O-])CCN(CC(=O)[O-])CC3)C(=O)NCCCCOc3ccc4nccc(C(=O)NCC(=O)N5CC(F)(F)C[C@H]5C#N)c4c3)cc12.[177Lu+3] (stereo partly shown) [[^177Lu]Lu-DOTAGA.Glu.(FAPI)2]	Absorbed dose (AD average) Rectum	8.54E-02

Task item: Would you kindly share the measured Absorbed dose (AD average) Rectum for N#C[C@@H]1CC(F)(F)CN1C(=O)CNC(=O)c1ccnc2ccc(OCCCCNC(=O)CC[C@H](NC(=O)CN3CCN(CC(=O)[O-])CCN(CC(=O)[O-])CCN(CC(=O)[O-])CC3)C(=O)NCCCCOc3ccc4nccc(C(=O)NCC(=O)N5CC(F)(F)C[C@H]5C#N)c4c3)cc12.[161Tb+3] [[^161Tb]Tb-DO3A.Glu.(FAPI)2] ?
Reply: 2.84E-02

Task item: Would you kindly share the measured Absorbed dose (AD average) Rectum for N#C[C@@H]1CC(F)(F)CN1C(=O)CNC(=O)c1ccnc2ccc(OCCCCNC(=O)CC[C@H](NC(=O)CCC(C(=O)O)N3CCN(CC(=O)[O-])CCN(CC(=O)[O-])CCN(CC(=O)[O-])CC3)C(=O)NCCCCOc3ccc4nccc(C(=O)NCC(=O)N5CC(F)(F)C[C@H]5C#N)c4c3)cc12.[161Tb+3] (stereo partly shown) [[^161Tb]Tb-DOTAGA.Glu.(FAPI)2] ?
Reply: 1.17E-01
